System: human leukemia K562 cells
Experiment: Cell proliferation assay (CCK-8)
Format: cell-based
Settings: Homo sapiens, K562, 72 h
Method: CCK-8 method: The CCK-8 method is a highly sensitive, non-radioactive colorimetric assay for the determination of the number of viable cells in cell proliferation or cytotoxicity assays. […] Cells in logarithmic growth phase were inoculated in 96-well plates with 5000 cells/well respectively, and after 24 h of incubation, samples were added (final concentrations as shown in the table), and biplicate wells were set up for each sample. […] The OD value at 450 nm was measured on an plate reader. […]
pIC50: −log10 of the molar value.
Kindly state pIC50 for each of the entries shown.

Answered examples (3):
| Smiles Code | Measured |
| --- | --- |
| C[C@H]1CCC/C=C/[C@@H]2C[C@H](O)C[C@H]2[C@H](OC(=O)/C=C/c2ccccc2)/C=C/C(=O)O1 | 6.00 to 7.00 |
| COc1cccc2c1C(=O)c1c(O)c3c(c(O)c1C2=O)C[C@@](O)(C(=O)CO)C[C@@H]3O[C@H]1C[C@H](N)[C@H](O)[C@H](C)O1 | 5.00 to 6.00 |
| C[C@H]1CCC/C=C/[C@@H]2C[C@H](OC(=O)/C=C/c3ccccc3)C[C@H]2[C@H](OC(=O)/C=C/c2ccccc2)/C=C/C(=O)O1 | 5.00 to 6.00 |

Consider the additional compound presented here.
Qu. Please report pIC50 with human leukemia K562 cells for item C[C@H]1CCC/C=C/[C@@H]2C[C@H](OC(=O)/C=C/c3ccccc3)C[C@H]2[C@H](O)/C=C/C(=O)O1 .
Ans. 6.00 to 7.00
